Test system: MS2 coat protein
method: apparent KD of MS2 coat protein; designed switch direction (-1 OFF switch, 1 ON switch): -1; higher = weaker reporter binding
test parameters: Eterna round: R95; input ligand: microRNA oligo, concentration not stated
fulfilled means recorded apparent KD of MS2 coat protein is 20 nM or above; not fulfilled means it is below 20 nM.

Below, 2 sequences whose answers are already recorded.
>>> cat("UGUACGAUGCGUGCUGACAUGCGUCGUGCAGCAGGUGUUACAUGAGGAUCACCCAUGUCCUCAUUUGCUCGUCUUAU [SL-sv3-2.08 JL mod] (puzzle: Sensor v3, turn-off variant 2)")
"fulfilled"
>>> cat("CUUAGACAUGAGGAUCACCCAUGUGAGGAUAUGAUGCGAAUAAGGAAGGAAGAAAGCAUCAGAAGGCACAUAUG [Mat - Mod of Hyphema D25] (puzzle: Exclusion 1)")
"fulfilled"

With those in mind, consider the next sequence.
Prompt: Confirm if apparent KD of MS2 coat protein reported for the sequence UUAUAUAAUGUGAGGAUAUGCUGGUCCUUGGAUCAGCAGAAGGCACAUGAGGAUCACCCAUGUAGUAAAUUUUA [JL bmx4 3.02] (puzzle: Brourd's mod of Exclusion 4) is 20 nM or above.
Response: not fulfilled
